All figures here come from paper PMC5839262.

molecular target: Kgp (Porphyromonas gingivalis, UniProt B2RLK2); test: Kgp gingipain activity, fluorescent assay with Boc‐VLK‐AMC in Pg cell suspensions; assay type: biochemical
Where a SMILES comes first, the peptide text is derived from it.
Endpoint label: IC50 (nM)
Your answer should be a plain number; it is taken to be in nM.

{"Compound": "Cc1cc(C)c(C(=O)OCC(=O)[C@H](CCCCN)NC(=O)[C@H](Cc2ccccc2)NC(=O)OCc2ccccc2)c(C)c1 [Z‐FK‐ck]", "Subject of test": "Kgp (Porphyromonas gingivalis, UniProt B2RLK2)", "Unit spec": "nM", "Test value": 0.5}
{"Compound": "CN(C)C(=O)[C@H](CCCCN)NC(=O)C(=O)[C@H](CCCNC(=N)N)NC(=O)[C@H](CCCCN)NC(=O)OCc1ccccc1 [KYT‐1, carbobenzoxy‐Lys‐Arg‐CO‐Lys‐N(CH3)2]", "Subject of test": "Kgp (Porphyromonas gingivalis, UniProt B2RLK2)", "Unit spec": "nM", "Test value": 20000}
{"Compound": "CN(NC(=O)CC[C@H](NC(=O)OCc1ccccc1)C(=O)N[C@@H](CCCCN)C(=O)C(=O)NCc1ccccc1)c1ccccc1 [KYT‐36]", "Subject of test": "Kgp (Porphyromonas gingivalis, UniProt B2RLK2)", "Unit spec": "nM", "Test value": 1}

Could you now look at the following compound, please?
**Query** Entry CC(=O)N[C@@H](CC(C)C)C(=O)N[C@H](C(=O)N[C@H](C=O)CCCCN)C(C)C [cathepsin B inhibitor II, Ac‐Leu‐Val‐Lys‐aldehyde] (Ac-Leu-Val-Lys-aldehyde) needs its IC50 filled in; supply it.
**Result** 50
